experiment: in vivo
test-settings: mouse, in vivo, iv, 5.5 MBq, total radioactivity, Kidney uptake
Here the recorded tissue uptake at 0.5 h is given for each entry.
Report as a plain number; the unit %ID/g is understood.

{"compound": "N=C(N)NCCC[C@@H]1NC(=O)[C@H](CCCCNC(=S)Nc2ccc(C[C@H]3CN(CC(=O)O)CCN(CC(=O)O)CCN3CC(=O)O)cc2)NC(=O)[C@@H](Cc2ccc(O)cc2)NC(=O)[C@H](CC(=O)O)NC(=O)CNC1=O [^64Cu-NOTA-RGD, metal not drawn, reference compound]", "quantity-unit": "%ID/g", "tissue uptake at 0.5 h": 3.37}

Problem: Requested read-out: tissue uptake at 0.5 h. Entry: CSCC[C@H](NC(=O)[C@H](CC(C)C)NC(=O)[C@H](Cc1c[nH]cn1)NC(=O)CNC(=O)[C@@H](NC(=O)[C@H](C)NC(=O)[C@H](Cc1c[nH]c2ccccc12)NC(=O)[C@H](CCC(N)=O)NC(=O)CCCCCNC(=O)CC[C@H](NC(=O)CN1CCN(CC(=O)O)CCN(CC(=O)O)CCN(CC(=O)O)CC1)C(=O)NCCCC[C@@H]1NC(=O)[C@@H](Cc2ccc(O)cc2)NC(=O)[C@H](CC(=O)O)NC(=O)CNC(=O)[C@H](CCCNC(=N)N)NC1=O)C(C)C)C(N)=O [^64Cu-DOTA-RGD-BBN, metal not drawn]
Solution: 5.99

Problem: Then CSCC[C@H](NC(=O)[C@H](CC(C)C)NC(=O)[C@H](Cc1c[nH]cn1)NC(=O)CNC(=O)[C@@H](NC(=O)[C@H](C)NC(=O)[C@H](Cc1c[nH]c2ccccc12)NC(=O)[C@H](CCC(N)=O)NC(=O)CCCCCNC(=O)CC[C@H](NC(=S)Nc1ccc(C[C@H]2CN(CC(=O)O)CCN(CC(=O)O)CCN2CC(=O)O)cc1)C(=O)NCCCC[C@@H]1NC(=O)[C@@H](Cc2ccc(O)cc2)NC(=O)[C@H](CC(=O)O)NC(=O)CNC(=O)[C@H](CCCNC(=N)N)NC1=O)C(C)C)C(N)=O [^64Cu-NOTA-RGD-BBN, metal not drawn] ?
Solution: 4.09

Problem: Then CSCC[C@H](NC(=O)[C@H](CC(C)C)NC(=O)[C@H](Cc1c[nH]cn1)NC(=O)CNC(=O)[C@@H](NC(=O)[C@H](C)NC(=O)[C@H](Cc1c[nH]c2ccccc12)NC(=O)[C@H](CCC(N)=O)NC(=O)CCCCCNC(=S)Nc1ccc(C[C@H]2CN(CC(=O)O)CCN(CC(=O)O)CCN2CC(=O)O)cc1)C(C)C)C(N)=O [^64Cu-NOTA-BBN, metal not drawn, reference compound] ?
Solution: 3.55
